Cited source for all entries: ChEMBL document CHEMBL5113456

Parameter Ki, tested on Nitric oxide synthase 1 (Rattus norvegicus, UniProt P29476), listed per item.
Sequence (P29476 whole entry): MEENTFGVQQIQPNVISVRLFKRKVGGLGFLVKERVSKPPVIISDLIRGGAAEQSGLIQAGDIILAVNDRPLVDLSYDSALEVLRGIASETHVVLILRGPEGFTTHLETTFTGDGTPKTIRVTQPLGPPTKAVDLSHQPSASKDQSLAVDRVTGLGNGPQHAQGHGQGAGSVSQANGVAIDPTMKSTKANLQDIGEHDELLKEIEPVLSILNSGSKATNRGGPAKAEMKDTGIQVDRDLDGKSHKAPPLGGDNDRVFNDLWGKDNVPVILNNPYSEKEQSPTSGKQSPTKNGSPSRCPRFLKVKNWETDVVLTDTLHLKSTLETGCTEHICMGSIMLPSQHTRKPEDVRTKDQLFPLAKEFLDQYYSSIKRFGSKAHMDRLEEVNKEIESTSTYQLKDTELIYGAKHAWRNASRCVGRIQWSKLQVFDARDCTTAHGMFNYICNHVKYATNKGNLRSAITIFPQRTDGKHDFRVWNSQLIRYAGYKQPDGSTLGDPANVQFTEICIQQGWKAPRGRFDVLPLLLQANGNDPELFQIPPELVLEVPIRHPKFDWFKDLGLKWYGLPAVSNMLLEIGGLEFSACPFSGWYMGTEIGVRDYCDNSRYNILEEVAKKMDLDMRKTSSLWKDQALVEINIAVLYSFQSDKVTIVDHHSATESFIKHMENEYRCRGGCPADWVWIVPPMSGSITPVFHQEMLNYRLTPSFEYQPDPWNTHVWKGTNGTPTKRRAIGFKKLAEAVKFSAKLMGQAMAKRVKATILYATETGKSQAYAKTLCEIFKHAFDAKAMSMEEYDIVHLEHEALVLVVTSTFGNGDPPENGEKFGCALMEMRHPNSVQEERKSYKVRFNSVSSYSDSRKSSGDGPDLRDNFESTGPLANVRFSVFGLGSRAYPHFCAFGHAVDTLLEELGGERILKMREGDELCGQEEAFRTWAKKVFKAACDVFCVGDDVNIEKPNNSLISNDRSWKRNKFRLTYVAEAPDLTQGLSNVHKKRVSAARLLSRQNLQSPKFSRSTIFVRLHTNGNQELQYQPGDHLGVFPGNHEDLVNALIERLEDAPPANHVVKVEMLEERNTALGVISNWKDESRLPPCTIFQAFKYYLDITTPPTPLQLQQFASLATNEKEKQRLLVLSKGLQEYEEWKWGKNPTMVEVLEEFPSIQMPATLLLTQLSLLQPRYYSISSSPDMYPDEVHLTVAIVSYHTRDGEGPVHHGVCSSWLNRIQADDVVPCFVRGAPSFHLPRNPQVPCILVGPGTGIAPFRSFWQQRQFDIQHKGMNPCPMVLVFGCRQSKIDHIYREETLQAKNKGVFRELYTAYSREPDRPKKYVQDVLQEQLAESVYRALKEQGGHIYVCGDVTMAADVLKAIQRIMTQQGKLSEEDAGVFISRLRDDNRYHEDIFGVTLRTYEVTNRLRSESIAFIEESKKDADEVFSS
TEST_READOUT: Ki (nM)

In [3]: df
Out[3]:
            smiles_representation  test_readout  result_value
0    Cc1cc(N)nc(CCCN2CCN(C)CC2)c1            Ki            56
1  Cc1cc(N)nc(C#CCN2CC(F)(F)C2)c1            Ki           465
2        Cc1cc(N)nc(C#CCCN(C)C)c1            Ki           242

---

- ASSAY_TEXT: Effective permeability of compound in PBS buffer at pH 7.4 at 200 uM incubated for 17 hrs by PAMPA-BBB assay
- Assay type: ADME
- CONDITIONS_USED: read-out: Peff
TEST_READOUT: Papp at 17 h, 200 µM (×10⁻⁶ cm/s)

In [3]: df
Out[3]:
               smiles_representation  unit_annotation  result_value
 0  Cc1cc(N)nc(C#CCN2CCC(F)(F)CC2)c1       ×10⁻⁶ cm/s          21.1
 1      Cc1cc(N)nc(CCCN2CCN(C)CC2)c1       ×10⁻⁶ cm/s           2.2
 2    Cc1cc(N)nc(C#CCN2CC(F)(F)C2)c1       ×10⁻⁶ cm/s          19.6
 3     Cc1cc(N)nc(CCCN2CC(F)(F)C2)c1       ×10⁻⁶ cm/s          17.5
 4          Cc1cc(N)nc(C#CCCN(C)C)c1       ×10⁻⁶ cm/s           4.7
 5              CNCC#Cc1cc(C)cc(N)n1       ×10⁻⁶ cm/s           4.7
 6   Cc1cc(N)nc(CCCN2CCC(F)(F)CC2)c1       ×10⁻⁶ cm/s          17.3
 7           Cc1cc(N)nc(CCCCN(C)C)c1       ×10⁻⁶ cm/s           2.3
 8               CNCCCc1cc(C)cc(N)n1       ×10⁻⁶ cm/s          0.96
 9     Cc1cc(N)nc(C#CCN2CCN(C)CC2)c1       ×10⁻⁶ cm/s           3.2
10            Cc1cc(N)nc(CCCN(C)C)c1       ×10⁻⁶ cm/s             2
